- measured target: T1, Fc tagged mouse TNFR1 (Sino Biological) (mouse, UniProt P25118 22-212, limits assumed)
- T1 construct: Bought reagent; also called mTNFR1; mTNFR1-Fc; not shown: Fc tag of the bought protein
- T1 sequence (looked up): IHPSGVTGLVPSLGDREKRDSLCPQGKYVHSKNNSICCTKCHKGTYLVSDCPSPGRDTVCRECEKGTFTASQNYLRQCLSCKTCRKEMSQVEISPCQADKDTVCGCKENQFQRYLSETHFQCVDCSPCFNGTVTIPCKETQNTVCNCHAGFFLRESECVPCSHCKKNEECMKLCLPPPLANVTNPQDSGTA
- method description: SPR, Biacore single cycle kinetics, stability study, before freezing (t=0)
reported endpoint: Kd (nM)
# number only, unit nM dropped from output

## Task What value of Kd has been recorded for this entry: TNF mutein B6 (ligand, Human TNF mutein, TGTYSY at positions 84-89; not shown: C-terminal FLAG tag and His6 tag from vector pANT65) VRSSSRTPSDKPVAHVVANPQAEGQLQWLNRRANALLANGVELRDNQLVVPSEGLYLIYSQVLFKGQGCPSTHVLLTHTISRITGTYSYKVNLLSAIKSPCQRETPEGAEAKPWYEPIYLGGVFQLEKGDRLSAEINRPDYLDFAESGQVYFGIIAL
## Result 0.067

## Task What value of Kd has been recorded for this entry: TNF mutein F7 (ligand, Human TNF mutein, SETVVG at positions 84-89; not shown: C-terminal FLAG tag and His6 tag from vector pANT65) VHSSSRTPSDKPVAHVVANPQAEGQLQWLNRRANALLANGVELRDNQLVVPSEGLYLIYSQVLFKGQGCPSTHVLLTHTISRISETVVGKVNLLSAIKSPCQRETPEGAEAKPWYEPIYLGGVFQLEKGDRLSVEINRPDYLDFAESGQVYFGIIAL
## Result 0.116

## Task What value of Kd has been recorded for this entry: TNF mutein F3 (ligand, Human TNF mutein, TTTYRL at positions 84-89; not shown: C-terminal FLAG tag and His6 tag from vector pANT65) VRSSSRTPSDKPVAHVVANPQAEGQLQWLNRRANALLANGVELRDNQLVVPSEGLYLIYSQVLFKGQGCPSTHVLLTHTISRITTTYRLKVNLLSAIKSPCQRETPEGAEAKPWYEPIYLGGVFQLEKGDRLSAEINRPDYLDFAESGQVYFGIVAL
## Result 0.11
